This collection of values is drawn from PubChem BioAssay (NCI).

Tested on: SNB-19 CNS
Assay: NCI tumour cell line growth inhibition, 48 h
MEASUREMENT_NAME: TGI (µM)
The answer is to be given in µM; state only the numeric part.

# annotated cases, reported TGI shown
COc1ccc(-c2cc(-c3ccccc3)nc(SCCCC(=O)NO)n2)cc1	9.27
Clc1cc(Cl)c(OCC#CI)cc1Cl	43.9
COC(=O)C(Cc1ccccc1)NC(=O)NC(=O)NC(=O)CI (stereo not given)	36.4

Consider the additional compound presented here.
Quick one: TGI for "CN1CCN(Cc2ccc(NC(=O)c3cncc(C#Cc4cnc(N)c5ccncc45)c3)cc2C(F)(F)F)CC1" ?
9.62

====

Test system: NCI/ADR-RES ovarian
Assay: NCI tumour cell line growth inhibition, 48 h
MEASUREMENT_NAME: TGI

The examples below pair each entry with its known result.
CCCCCC/C=C\CCCCCCCCCc1cccc(O)c1C(=O)O	> 100 µM
C=CCOC1OC(CO[Si](C)(C)C(C)(C)C)C(OCc2ccccc2)C(OCc2ccccc2)C1OCc1ccccc1 (centres undefined)	> 100 µM
COc1ccc2[nH]c3c(c2c1)CCn1c-3nc2ccccc2c1=O	> 25 µM

Please examine the following record next.
Would you mind telling me what TGI value was observed for "Cc1ccc(-c2nc3ccc(Cl)cc3[nH]2)cc1" ?
> 100 µM

====

Tested on: CAKI-1 renal
Test: NCI tumour cell line growth inhibition, 48 h
MEASUREMENT_NAME: TGI

CCCCCCCCCCCC(=O)OCCOCCOCCOCCOCCOCc1ccc(OC)cc1	> 100 µM
COc1cc2cc(C(=O)N3CC(CCl)c4ccc(O)cc43)[nH]c2c(OC)c1OC (stereo not given)	0.0201 µM

Name the recorded TGI for "Cc1c(C#N)c(=O)[nH]c(=O)n1CCN1CCN(C(=O)NCCCCCCNC(=O)N2CCN(CCn3c(C)c(C#N)c(=O)[nH]c3=O)CC2)CC1" .
> 100 µM

What do you have for COC(=O)C1CCC(=O)N1CN(C(C)=O)c1ccccc1 (stereo not given) ?
> 100 µM

====

Test system: OVCAR-4 ovarian
Experiment: NCI tumour cell line growth inhibition, 48 h
Reported values of TGI for individual entries

Form field - read-out: TGI; system: OVCAR-4 ovarian; submitted item: "Cc1ccc(-c2cc(-c3ccc(C)cc3)nc(NCCNc3ccnc4cc(Cl)ccc34)n2)cc1"
3.24 µM

Same for "CN(C)CCNc1nc(-c2ccc3ccccc3c2)nc2nc[nH]c12"
23.8 µM

Same for "Cc1ccc(NC(=O)/C=C/c2ccccc2)c(C(N)=O)c1"
> 100 µM

Input "COc1ccc([C@@H]2ON(C)[C@H]3CN(C)C(=O)[C@@H]23)cc1"
> 100 µM

Can you handle "CC(C)(C)c1n[nH]c(=S)n(/N=C/c2ccc(F)c(Oc3ccccc3)c2)c1=O" next?
96.9 µM

Record: "CCOC(=O)CSc1nc(-c2ccccc2)c(C#N)c(=O)[nH]1"
> 100 µM

====

System: SN12C renal
Assay: NCI tumour cell line growth inhibition, 48 h
MEASUREMENT_NAME: log10 of TGI (log10 of the value in µM)
Remember, log10 of TGI, in µM.

Please review the entries below; each comes with its answer.
Cc1ccc(-c2cc(-c3ccc(C)cc3)nc(NCCNc3ccnc4cc(Cl)ccc34)n2)cc1	0.52
O=C(N=S(NC(=O)c1ccccc1)C(Cl)(Cl)Cl)c1ccccc1 (stereo not given)	1.75
CC(C)(C)c1ccc(OCCCCCCN2CCNCC2)cc1	1.44
COc1ccc(C2=C(Cl)c3cc(OC)c(OC)cc3C2Cl)cc1OC (stereo not given)	1.58
CCC(NC(C)c1ccccc1)C(O)c1ccc(OCc2ccccc2)c(OCc2ccccc2)c1 (stereo not given)	1.47

Which value of log10 of TGI has been reported for "CCN=C1C=CC(=C(c2ccc(N)cc2)c2ccc(N(CC)CC)c(C)c2)C=C1" in the records?
0.06

Here is the next compound: "COc1cc2c(c(OC)c1OC)-c1ncc3cc(OC)c(OC)c(OC)c3c1C2"
1.87

Consider next the compound CC1=C(N2CC2)C(=O)c2nc3n(c2C1=O)CCC3OC(=O)CCl (stereo not given) in the same way.
-0.57

Also "COc1cccc(C=Nc2cc(C)ccn2)c1O.COc1cccc(C=Nc2cc(C)ccn2)c1O.[Cu]" , if possible.
1.70

Could you do the same for "N#Cc1c(N)oc(-c2cccc([N+](=O)[O-])c2)c1C#N" , please?
1.96

"NCCCN(CCCCN(CCCN)Cc1ccc2ccccc2c1)Cc1ccc2ccccc2c1" ?
0.49

Further, for "C[C@]12CC[C@H]3[C@@H](CCC4=CC(=O)CC[C@@H]43)[C@@H]1CC[C@@H]2OC(=O)CCc1ccccc1" ?
1.47

====

Listed compounds paired with reported TGI
Tested on: KM12 colon
Experiment: NCI tumour cell line growth inhibition, 48 h
Provide the reading as a plain figure in µM.

CC(CN1CCN(CCOCCO)CC1)CN1c2ccccc2Sc2ccc(Cl)cc21 (configuration not stated)	8.21
Cc1cc2c3ccc(C)[n+](C)c3ccc2n1C	3.46
CC1=C2C(=O)c3ccccc3C(=O)[C@H]2[C@H]2CCO[C@H]2O1	58.1
CN(C)CCNC(=O)c1cccc2c(NCC(=O)O)c3ccccc3nc12	60.7
O=C(c1ccccc1)c1ccc(COc2ccc(C(c3c(O)c4ccccc4oc3=O)c3c(O)c4ccccc4oc3=O)cc2)cc1	29.6
COc1cc2c(c(OC)c1OC)-c1ncc3cc(OC)c(OC)c(OC)c3c1C2	63

Kindly consider the entry below.
Name the reported TGI value associated with the compound Brc1cccc(C2SCc3nc4ccccc4n32)c1 (configuration not stated)
42.7

====

Test system: SR leukemia
Assay: NCI tumour cell line growth inhibition, 48 h; in the data active means GI50 below about 0.43 µM; inactive means the rest
One label from this list, please: yes = active, no = inactive

Recorded results for 3 molecules are shown here.
C=CC(=O)N(C)[C@H]1C[C@H]2OC(C)(C1OC)n1c3ccccc3c3c4c(c5c6ccccc6n2c5c31)C(=O)NC4 (some centres undefined)	yes
O=C(c1ccccc1)C(CN1CCOCC1)c1ccccc1 (centres undefined)	no
COC(=O)Cn1c2c(c3c(O)cccc31)C(=O)c1ccccc1-2	no

Which outcome was entered for the molecule "O=[N+]([O-])c1cccc(-c2nc3sccn3c2-c2ccnc(NCCCNS(=O)(=O)c3cccc(F)c3)n2)c1" in this test?
no

Now the molecule "Cc1cc(NCc2cc(Nc3ccnc4cc(Cl)ccc34)ccc2F)nc(N2CCCC2)n1"
yes

====

Entries and their measured TGI follow.
System: 786-0 renal
Test: NCI tumour cell line growth inhibition, 48 h

COc1cc(OC)c(/C=C2\N=C(C)N(Nc3nnc(NN4C(=O)/C(=C/c5c(OC)cc(OC)cc5OC)N=C4C)c4ccccc34)C2=O)c(OC)c1	> 100 µM
COc1cc2c(c(OC)c1OC)-c1ncc3cc(OC)c(OC)c(OC)c3c1C2	> 100 µM
O=C(c1ccccc1)C(CN1CCOCC1)c1ccccc1 (stereo not drawn)	6.93 µM

May I ask what TGI has been recorded for "CCCn1c(C)nc2c1C(=O)c1ccccc1C2=O" ?
> 100 µM

Same for C[Si](C)(C)OC1(C#N)C2C3CC4C2C(=O)C2C4C3C21 (stereo not drawn)
> 100 µM

Entry to check: "O=C(O)C/C=C/CC(=O)O"
> 100 µM

// query: "CC(=O)NC1=C(OS(=O)(=O)c2ccc(C)cc2)CN(C)C1=O"
16.5 µM

Also "CCCCCCc1cc(C(=O)Nc2cccc(C(F)(F)F)c2)nc(N)n1" , if possible.
> 100 µM

====

System: LOX IMVI melanoma
Test: NCI tumour cell line growth inhibition, 48 h
Reported TGI values are given for each entry in this list.

Param item = "CNC(=O)N1CN(c2ccccc2)C2(CCN(CCCC(=O)c3ccc(F)cc3)CC2)C1=O" ; retrieve measured TGI.
37.1 µM

Entry to check: COc1ccc(N2C(=O)C3c4[nH]c5c(C)cccc5c4C4CCC(C(C)(C)C)CC4C3C2=O)cc1 (centres undefined)
4.17 µM

Input "COc1ccc(NC(=O)/C(=N\NC(=O)C[n+]2ccccc2)c2c(O)c3ccc(O)cc3oc2=O)c([N+](=O)[O-])c1"
> 100 µM

What about this compound? "CCOC(=O)c1c(N2CCCC2)nsc1Nc1ccccc1"
> 100 µM

Then what about the compound "O=C(c1ccccc1)c1ccc(COc2ccc(C(c3c(O)c4ccccc4oc3=O)c3c(O)c4ccccc4oc3=O)cc2)cc1" ?
56.5 µM

And for "N/C(=N\N=C\c1ccc(-c2ccccc2)cc1)N[N+](=O)[O-]" ?
> 100 µM

Further, for "COC(=O)c1c2n(c3ccccc13)C[C@H]1OC(C)(C)O[C@@H]21" ?
> 100 µM

====

Tested on: OVCAR-8 ovarian
Assay: NCI tumour cell line growth inhibition, 48 h
MEASUREMENT_NAME: GI50

Some entries whose results are on file:
N#Cc1c(N/N=C/c2c(Cl)cccc2Cl)nc(N)nc1N1CCOCC1	60.6 µM
Cc1ccc(NC(=O)/C=C/c2ccccc2)c(C(N)=O)c1	7.38 µM
CC(C)(C)c1n[nH]c(=S)n(/N=C/c2ccc(F)c(Oc3ccccc3)c2)c1=O	25.6 µM

Next item in the queue.
Which GI50 is reported for this molecule? "Cc1cc(N/N=C/c2nc(-c3ccc(Br)cc3)oc2C)c2cc(Cl)ccc2n1"
> 100 µM
